Exercise: state measured viability at 28.5 h, 10 µM for each of the molecules provided.
- procedureSummary: in vitro
- details: human, hela cells, % viability
Units required after the number.

Endpoint output: viability at 28.5 h, 10 µM of O=C(CCS(=O)(=O)c1ccccc1)NCc1ccccc1OC1CCNC1 (centres unmarked) [CBK028296T] . Value?
95.9%

Need viability at 28.5 h, 10 µM, item CN(CC1CC1)C(=O)Cn1cnc2c(F)cc(Br)cc2c1=O [CBK305227]
87.2%

Name the reported viability at 28.5 h, 10 µM value associated with the molecule COc1cc(C)c(C)cc1S(=O)(=O)n1ccnc1C [CBK287579]
108%

For CN1CCN(C(=O)C[C@@H]2CCNC[C@@H]2Cc2cc(CC3CCCCC3)on2)CC1 [CBK289151] , what is its reported viability at 28.5 h, 10 µM?
84.3%

What viability at 28.5 h, 10 µM value was documented for this molecule, COc1cc(CNCc2cccs2)ccc1OCC(N)=O [CBK267620C] ?
95.7%

====

- procedureSummary: in vitro
- details: human, hela cells, % viability
Hi there, I'd appreciate the recorded viability at 28.5 h, 10 µM for every entry that follows.
Hi! Could you send only the number? It should be in %, unit omitted.

Request the reported viability at 28.5 h, 10 µM associated with CC(=O)N1CCc2sccc2C1c1ccc(NC(=O)c2ccccc2F)cc1 (stereo not drawn)
84.2

Need viability at 28.5 h, 10 µM of Cc1nnc(SCCn2c(N3CCCCC3)nc3c2c(=O)n(C)c(=O)n3C)s1 , thanks.
103

Would you kindly share the measured viability at 28.5 h, 10 µM for c1cnc(NCc2cc3n(n2)CCN(CC2CCCCC2)C3)cn1 ?
80

Dear colleague, I am looking for the recorded viability at 28.5 h, 10 µM of the following compound: O=C(c1ccccc1)c1cc[n+](CCC[n+]2ccc(C(=O)c3ccccc3)cc2)cc1 [CBK278270B]
91.5

viability at 28.5 h, 10 µM for Cc1nc(NC(=O)Cn2c3c(c4ccccc42)CCC3)nn1C ?
85.5

Please look up its viability at 28.5 h, 10 µM: COc1ccc(CCNC(=O)CCn2cncn2)cc1
105

Which viability at 28.5 h, 10 µM reading was recorded for the compound COc1ccc2nc(-c3cccc(NC(=O)c4ccc(F)cc4)c3)cn2n1 ?
104

Form field: reported viability at 28.5 h, 10 µM of CS(=O)(=O)c1ccc(-n2nnnc2CN2CCC3(CCC3)C2)cc1
79.6

Name the recorded viability at 28.5 h, 10 µM for CC(=O)N1CC[C@H]2NC(=O)CNC(=O)C3(CCCC[C@H]2C1)CCN(C(=O)CN1CCCCC1)CC3 .
104

====

- procedureSummary: in vitro
- details: human, hela cells, % viability
Kindly state viability at 28.5 h, 10 µM for each of the entries shown.
Only the number, expressed in %, is required.

Dear colleague, I am looking for the recorded viability at 28.5 h, 10 µM of the following compound: O=C(Nc1ccc(F)cc1)c1[nH]c2ccccc2c1NS(=O)(=O)c1ccc(C(F)(F)F)cc1[N+](=O)[O-]
90.1

Which viability at 28.5 h, 10 µM is reported for this compound? N#Cc1ccc(C(=O)N2CCC3(CC2)NC(=O)c2cc(-c4ccoc4)ccc2O3)cc1
88.9

Query: viability at 28.5 h, 10 µM; subject: CC(C)(C)C1=CC2=NC3(CCC3)C3C[C@@](C)(O)[C@@H](O)[C@@H]3N2O1 (stereo partly shown)
112

What value of viability at 28.5 h, 10 µM has been recorded for this entry: CC1=[N+]([O-])C2(N)CCc3nonc3C2(O)C1 (stereo not shown)
87.9
